# Assay name: NCI Yeast Anticancer Drug Screen. Data for the sgs1 mgt1 strain (AID 161);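 note: 0% = growth of cultures given vehicle only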
# Experimental context: S. cerevisiae sgs1 mgt1 strain, at 50.0 µM (retest, dose inferred, filed as 5.0)
About 79,000 compounds went through this panel and 15% of them were active in at least one assay; those are over-represented in the sample as a whole. Activity calls are given as the source filed them. Cut-off read from the data, not from the text of the source: active = growth inhibition above about 70%; inactive = the rest.
Lab note: assign the record to one of active, inactive

Call for entry CC1=NN(C(=O)c2ccncc2)C(=O)C1N=Nc1ccc(C)c([N+](=O)[O-])c1 (centres undefined) :
active

* * *

# Assay name: NCI Yeast Anticancer Drug Screen. Data for the mlh1 rad18 strain (AID 175)
# Experimental context: S. cerevisiae mlh1 rad18 strain growth inhibition; at 50.0 µM
The panel holds about 79,000 compounds, 15% with a hit somewhere; the sample as a whole holds those more often. The source made the active and inactive calls. No stated cut-off is given here; in the data, active means growth inhibition above about 70%; inactive means the rest.
Lab note: assign the record to one of active, inactive

Please review the following examples before continuing.
- Molecule: "Oc1ccccc1N=CC1CCCCC1"
  Class: "inactive"
- Molecule: "Cn1c2nc(-[n+]3ccc4ccccc4c3)nc-2c([O-])n(C)c1=O"
  Class: "inactive"
- Molecule: "O=C(O)c1ccccc1-c1c2cc([N+](=O)[O-])c(=O)c(Br)c-2oc2c(Br)c(O)c([N+](=O)[O-])cc12"
  Class: "active"
- Molecule: "Nc1nc(=O)[nH]c([O-])c1N=O.Nc1nc(=O)[nH]c([O-])c1N=O.[Ag+].[Ag+]"
  Class: "active"
- Molecule: "S=c1sc2c(s1)SCCOCCOCCOCCS2"
  Class: "inactive"
- Molecule: "CCOC(=O)c1ccc2c3c([nH]c2c1C)-c1ccccc1CC3"
  Class: "active"
- Molecule: "Cc1nc(N)sc1N=Nc1ccccc1Br"
  Class: "active"
- Molecule: "O=C1C(=O)C(Cc2ccccc2)(c2ccccc2)C(=O)N1c1ccccc1 (configuration not stated)"
  Class: "inactive"

Call for entry CC(=O)N1C(c2[nH]c3ccccc3c2-c2ccccc2)CCN1c1ccccc1 (configuration not stated) :
active

Call for entry CCN(CC)c1ccc(Cl)c2c1C(O)(C(C)C)C2(C)C (configuration not stated) :
active

Call for entry Cc1c(N)nc(C2CC(=O)N2CC(N)C(N)=O)nc1C(=O)NC(C(=O)NC(C)C(O)C(C)C(=O)NC(C(=O)NCCc1nc(-c2nc(C(=O)NCCCNC3CCCC3)cs2)cs1)C(C)O)C(OC1OC(CO)C(O)C(O)C1OC1OC(CO)C(O)C(OC(N)=O)C1O)c1cnc[nH]1 (configuration not stated) :
active

Call for entry C/C(=N/Nc1ccc([N+](=O)[O-])cc1[N+](=O)[O-])C(=O)O :
active

Call for entry CN1CCCC1c1cccc(Br)c1 (configuration not stated) :
inactive

Call for entry Cn1nc(-c2ccc3c(c2)OCO3)[n+]([O-])c2c(=O)n(C)c(=O)nc1-2 :
active

Call for entry CCCC#CC(O)(C(=O)OC1CCN(C)CC1)C1CCCCC1 (configuration not stated) :
inactive

* * *

# Assay name: NCI Yeast Anticancer Drug Screen. Data for the cln2 rad14 strain (AID 165);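 note: 0% = growth equal to vehicle treated cultures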
# Experimental context: S. cerevisiae cln2 rad14 strain, at 5.0 µM (retest, dose inferred, filed as 0.5), hits give high values
The panel holds about 79,000 compounds, 15% with a hit somewhere; the sample as a whole holds those more often.
Property measured: growth inhibition (%)
API: value field is a number in %; no unit string.

- Compound: "CCCC1c2ccc(O)cc2CC1c1ccc(O)cc1 (centres undefined)"
  growth inhibition [%]: 11
- Compound: "OCCCNc1nc2c(Cl)cc(Cl)cc2c2ccccc12"
  growth inhibition [%]: -6
- Compound: "N#Cc1ccc2nc3ccc(N)cc3nc2c1"
  growth inhibition [%]: -6
- Compound: "CC(=O)Nc1ccc(-c2csc(Nc3ccnc4cc(Cl)ccc34)n2)cc1"
  growth inhibition [%]: 0
- Compound: "CC(C)c1c(P(=O)(c2ccccc2)c2ccccc2)n(C)c2ccccc12"
  growth inhibition [%]: -4
- Compound: "O=C(COC(=O)c1ccc(O)cc1)c1ccc(-c2ccccc2)cc1"
  growth inhibition [%]: 22
- Compound: "CCCCCCCCCCCCNC(=O)NCC(OCC)OCC"
  growth inhibition [%]: 28
- Compound: "O=C(O)c1cc(Br)ccc1OCc1ccc(Cl)cc1"
  growth inhibition [%]: -13

// next item, growth inhibition requested
For record Cc1ccc(S(=O)(=O)Nn2c(S)c(C#N)c(-c3ccc([N+](=O)[O-])cc3)c(C#N)c2=O)cc1 the listed growth inhibition is 43
